- protocol-conditions: in isopropanol, 288.15 K
reported-endpoint: solubility (mole fraction)
Give bare numbers.

Task: Provide one value: measured solubility (mole fraction) of "C[C@H](O)[C@@H](O)[C@@H](O)[C@H](O)C=O"
Output: 0.00014

---

- protocol-conditions: in isopropanol, 293.15 K
reported-endpoint: solubility (mole fraction)
Numbers only.

Task: Provide one value: measured solubility (mole fraction) of "C[C@H](O)[C@@H](O)[C@@H](O)[C@H](O)C=O"
Output: 0.00024

---

- protocol-conditions: in ethanol, 298.15 K
reported-endpoint: solubility (mole fraction)

Task: Provide one value: measured solubility (mole fraction) of "C[C@H](O)[C@@H](O)[C@@H](O)[C@H](O)C=O"
Output: 0.00043

---

- protocol-conditions: in methanol, 308.15 K
reported-endpoint: solubility (mole fraction)

Task: Provide one value: measured solubility (mole fraction) of "C[C@H](O)[C@@H](O)[C@@H](O)[C@H](O)C=O"
Output: 0.00345

---

- protocol-conditions: in methanol, 293.15 K
reported-endpoint: solubility (mole fraction)
One number for each entry.

Task: Provide one value: measured solubility (mole fraction) of "C[C@H](O)[C@@H](O)[C@@H](O)[C@H](O)C=O"
Output: 0.00244

---

- protocol-conditions: in water, 288.15 K
reported-endpoint: solubility (mole fraction)
Numbers only.

Task: Provide one value: measured solubility (mole fraction) of "C[C@H](O)[C@@H](O)[C@@H](O)[C@H](O)C=O"
Output: 0.0512

---

- protocol-conditions: in acetone, 308.15 K
reported-endpoint: solubility (mole fraction)
Answers are plain numbers.

Task: Provide one value: measured solubility (mole fraction) of "C[C@H](O)[C@@H](O)[C@@H](O)[C@H](O)C=O"
Output: 0.00038

---

- protocol-conditions: in water, 308.15 K
reported-endpoint: solubility (mole fraction)
Answers are plain numbers.

Task: Provide one value: measured solubility (mole fraction) of "C[C@H](O)[C@@H](O)[C@@H](O)[C@H](O)C=O"
Output: 0.174

---

- protocol-conditions: in acetone, 303.15 K
reported-endpoint: solubility (mole fraction)
Give bare numbers.

Task: Provide one value: measured solubility (mole fraction) of "C[C@H](O)[C@@H](O)[C@@H](O)[C@H](O)C=O"
Output: 0.00032

---

- protocol-conditions: in isopropanol, 298.15 K
reported-endpoint: solubility (mole fraction)
Give bare numbers.

Task: Provide one value: measured solubility (mole fraction) of "C[C@H](O)[C@@H](O)[C@@H](O)[C@H](O)C=O"
Output: 0.00032

---

- protocol-conditions: in isopropanol, 303.15 K
reported-endpoint: solubility (mole fraction)
Numbers only.

Task: Provide one value: measured solubility (mole fraction) of "C[C@H](O)[C@@H](O)[C@@H](O)[C@H](O)C=O"
Output: 0.00043

---

- protocol-conditions: in isopropanol, 308.15 K
reported-endpoint: solubility (mole fraction)
Give bare numbers.

Task: Provide one value: measured solubility (mole fraction) of "C[C@H](O)[C@@H](O)[C@@H](O)[C@H](O)C=O"
Output: 0.00056

---

- protocol-conditions: in acetone, 288.15 K
reported-endpoint: solubility (mole fraction)
Give bare numbers.

Task: Provide one value: measured solubility (mole fraction) of "C[C@H](O)[C@@H](O)[C@@H](O)[C@H](O)C=O"
Output: 0.00023
